# Test system: RPMI-8226 leukemia
# TEST_DETAILS: NCI-60 one-dose screen, 48 h
# STUDY_CONDITIONS: 10 µM
The panel holds about 83,000 compounds, 20% with a hit somewhere; the sample as a whole holds those more often. The source made the active and inactive calls. How the source made its calls: active means growth percent below 10; inactive means the rest.
Pick one: active, inactive

// known answers, use as guide
{"columns": ["COMPOUND", "CLASS_LABEL"],
 "data": [
  ["C[C@H]1[C@H](OC(=O)CCC(=O)Nc2cnccn2)O[C@@H]2OC3(C)CC[C@H]4[C@H](C)CC[C@@H]1[C@@]24OO3", "inactive"],
  ["CC12OOC(C)(OO1)C2CCC(=O)OCCNc1ccnc2cc(Cl)ccc12 (stereo not drawn)", "active"]
]}

Query: Dear all, I need the recorded test outcome for CC1=C(C=O)C2=C(C)C3(CC3)[C@@](C)(O)C(=O)C2=C1 , thank you.
Reply: inactive

Query: Dear all, I need the recorded test outcome for COc1cc(OC)c(/C=C/C(=O)c2nc3ccccc3n2Cc2ccc(F)cc2)c(OC)c1 , thank you.
Reply: inactive

Query: Dear all, I need the recorded test outcome for COc1cc2cc(C(=O)N3C[C@@H](CCl)c4c3cc(OC(=O)N3CCN(C)[C@@H]5CSSC[C@@H]53)c3ccccc43)[nH]c2c(OC)c1OC , thank you.
Reply: active
